- system.name: T1, recombinant human α5β1 integrin extracellular domains (human, UniProt P08648 1-995; P05556 1-728, Biotinylated on the Avitag (tag not in the letters); interchain disulfide between the coiled-coils (not in the letters).)
- T1 construct: Soluble heterodimer co-expressed in Expi293 cells; also called hα5β1
- measurement.protocol: AlphaLISA blocking of human fibronectin binding
measured.attribute: pIC50
Answers are plain numbers, as −log10 of the molar value.

binder	pIC50
Ab-32 (antibody, V domains shown) VH: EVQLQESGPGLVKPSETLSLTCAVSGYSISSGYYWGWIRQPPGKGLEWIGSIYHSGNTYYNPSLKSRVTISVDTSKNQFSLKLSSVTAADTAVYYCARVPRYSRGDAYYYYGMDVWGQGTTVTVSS VL: EIVLTQSPGTLSLSPGERATLSCRASQSVRSSYLAWYQQKPGQAPRLLIYGASSRATGIPDRFSGSGSGTDFTLTISRLEPEDFAVYYCQQAGLVFTFGGGTKVEIK	7.47
Ab-31 (antibody, V domains shown) VH: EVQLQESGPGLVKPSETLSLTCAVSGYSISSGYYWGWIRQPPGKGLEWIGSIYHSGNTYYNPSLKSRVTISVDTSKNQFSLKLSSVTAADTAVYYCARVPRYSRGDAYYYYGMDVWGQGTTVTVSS VL: DIQMTQSPSTLSASVGDRVTITCRASQSIGSWLAWYQQKPGKAPKLLIYKASSLESGVPSRFSGSGSGTEFTLTISSLQPDDFATYYCQQSGPYPWTFGGGTKVEIK	7.32

Batch lookup, pIC50 per entry.
1. Ab-33 (antibody, V domains shown) VH: EVQLVQSGAEVKKPGSSVKVSCKASGGTFSNYAISWVRQAPGQGLEWMGGIIPIFGTANYAQKFQGRVTITADESTSTAYMELSSLRSEDTAVYYCARAPRSARGDMYYYYYGMDVWGQGTTVTVSS VL: DIQMTQSPSTLSASVGDRVTITCRASQSIGSWLAWYQQKPGKAPKLLIYKASSLESGVPSRFSGSGSGTEFTLTISSLQPDDFATYYCQQYGRYPWTFGGGTKVEIK
2. Ab-30 (antibody, V domains shown) VH: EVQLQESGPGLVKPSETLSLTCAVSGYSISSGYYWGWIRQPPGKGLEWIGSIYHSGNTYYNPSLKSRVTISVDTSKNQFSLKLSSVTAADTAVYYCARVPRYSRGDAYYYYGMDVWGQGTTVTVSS VL: DIQMTQSPSTLSASVGDRVTITCRASQSISSWLAWYQQKPGKAPKLLIYKASSLESGVPSRFSGSGSGTEFTLTISSLQPDDFATYYCQQVKIYPPYTFGGGTKVEIK

**A:**
1: 7.51; 2: 7.37

Measured values drawn from patent US20250313635A1 for this set.
